target: Neuronal acetylcholine receptor alpha9/alpha10 (Homo sapiens)
experiment.summary: Partial agonist activity at human alpha9alpha10 nAChR expressed as xenopus laevis oocytes assessed as increase in receptor desensitization measured after 120 secs by two-electrode voltage-clamp electrophysiology method
pEC50: −log10 of the molar value.

| molecular.string | pEC50 |
| --- | --- |
| CC[N+]1(C)CCN(c2ccc(NC(C)=O)cc2)CC1 | 6.19 |

Data provenance: BindingDB's records for PubMed 38748608
